Cited source for all entries: paper PMC12089509

Tested on: S. aureus SA-K1902 (norA-)
Experiment: Checkerboard assay EPI/CPX against SA-K1902
Format: cell-based, Staphylococcus aureus
Settings: EPI at 1.6 µg/mL
// reported N° CPX MIC reduction per item
Give the value as a plain number.

# input N° CPX MIC reduction for CN1c2c(-c3ccc(F)cc3)nn(C)c2-c2ccc(OCCN3CCOCC3)cc2S1(=O)=O ?
# output 2

# input N° CPX MIC reduction for O=[N+]([O-])c1ccc(-n2nc(-c3ccc(Cl)cc3)c3c2-c2ccccc2S(=O)(=O)N3)cc1 [Compound 1, reference compound] ?
# output 0

# input N° CPX MIC reduction for CN1c2c(-c3ccc(Cl)cc3)n[nH]c2-c2ccccc2S1(=O)=O ?
# output 2

Further cases:
# input N° CPX MIC reduction for O=S1(=O)Nc2c(-c3ccc(Cl)cc3)nn(-c3ccccc3)c2-c2ccccc21 ?
# output 2

* * *

Target: S. aureus NorA efflux pump (SA-1199B strain, overexpresses the norA gene) (Staphylococcus aureus)
Construct: endogenous in cells; host or cells: S. aureus SA-1199B (overexpresses norA; isogenic parent SA-1199)
Sequence (P0A0J7 whole entry): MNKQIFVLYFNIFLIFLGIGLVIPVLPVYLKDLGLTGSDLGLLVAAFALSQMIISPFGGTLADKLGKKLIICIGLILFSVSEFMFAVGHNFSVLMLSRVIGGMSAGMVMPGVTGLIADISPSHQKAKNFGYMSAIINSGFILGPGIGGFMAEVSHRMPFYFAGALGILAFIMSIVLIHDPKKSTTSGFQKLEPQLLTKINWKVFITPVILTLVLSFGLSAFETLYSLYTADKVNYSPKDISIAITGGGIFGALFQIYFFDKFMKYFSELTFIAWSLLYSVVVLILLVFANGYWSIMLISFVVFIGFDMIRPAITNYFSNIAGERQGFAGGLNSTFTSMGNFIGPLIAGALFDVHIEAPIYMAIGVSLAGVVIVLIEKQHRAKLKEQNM
Assay: EtBr efflux inhibition assay
Format: cell-based
Conditions: read-out: EtBr efflux inhibition (%), compound at 50 µM, SA-1199B
Method: EtBr efflux inhibition assays were conducted using the S. aureus SA‐1199B strain, which overexpresses the norA gene and has an A116E GrlA substitution. Each compound was tested at 50 µM (see Figure 2). […] The cells were grown overnight in cation‐supplemented Mueller–Hinton broth (CAMHB) without any additives at 35°C. […] Fluorescence was monitored continuously using a microplate reader (Infinite M200 Pro, TECAN) at excitation and emission wavelengths of 485 and 645 nm, respectively, for a period of 5 min. […]
Label Y for high-side inhibition at 50 µM (at or above 40%) and N for low-side inhibition at 50 µM (below it).

These solved cases illustrate the format of a correct answer.
# input Has Cc1nn(-c2ccc([N+](=O)[O-])cc2)c2c1N(C)S(=O)(=O)c1ccccc1-2 a recorded inhibition at 50 µM greater than or equal to 40%?
# output N

# input Has CN1c2c(-c3ccc(F)cc3)nn(C)c2-c2ccc(OCC(O)CO)cc2S1(=O)=O (stereo not drawn) a recorded inhibition at 50 µM greater than or equal to 40%?
# output N

Note: attention shifts to another entry.
# input Has CN1c2c(-c3ccc(Cl)cc3)n[nH]c2-c2ccccc2S1(=O)=O a recorded inhibition at 50 µM greater than or equal to 40%?
# output Y

* * *

Assay: MTT cytotoxicity assay on A549
Format: cell-based
Details: human, A549 cells, A549, 50 μg/mL, read-out: Cytotoxicity (% cell viability)
// reported viability at 72 h, 50 µg/mL per item
// units = %; emit number, no label

Example cases with answers are listed next.
# input viability at 72 h, 50 µg/mL for CN1c2c(-c3ccc(Cl)cc3)n[nH]c2-c2ccccc2S1(=O)=O [Compound 10] ?
# output 7

# input viability at 72 h, 50 µg/mL for O=[N+]([O-])c1ccc(-n2nc(-c3ccc(Cl)cc3)c3c2-c2ccccc2S(=O)(=O)N3)cc1 [Compound 1, reference compound] ?
# output 32

// next entry
# input viability at 72 h, 50 µg/mL for O=S1(=O)Nc2c(-c3ccc(Cl)cc3)nn(-c3ccccc3)c2-c2ccccc21 [Compound 3] ?
# output 101
